tested-on: ACK1 (Homo sapiens)
Construct: purchased Reaction Biology
Sequence (Q07912 whole entry): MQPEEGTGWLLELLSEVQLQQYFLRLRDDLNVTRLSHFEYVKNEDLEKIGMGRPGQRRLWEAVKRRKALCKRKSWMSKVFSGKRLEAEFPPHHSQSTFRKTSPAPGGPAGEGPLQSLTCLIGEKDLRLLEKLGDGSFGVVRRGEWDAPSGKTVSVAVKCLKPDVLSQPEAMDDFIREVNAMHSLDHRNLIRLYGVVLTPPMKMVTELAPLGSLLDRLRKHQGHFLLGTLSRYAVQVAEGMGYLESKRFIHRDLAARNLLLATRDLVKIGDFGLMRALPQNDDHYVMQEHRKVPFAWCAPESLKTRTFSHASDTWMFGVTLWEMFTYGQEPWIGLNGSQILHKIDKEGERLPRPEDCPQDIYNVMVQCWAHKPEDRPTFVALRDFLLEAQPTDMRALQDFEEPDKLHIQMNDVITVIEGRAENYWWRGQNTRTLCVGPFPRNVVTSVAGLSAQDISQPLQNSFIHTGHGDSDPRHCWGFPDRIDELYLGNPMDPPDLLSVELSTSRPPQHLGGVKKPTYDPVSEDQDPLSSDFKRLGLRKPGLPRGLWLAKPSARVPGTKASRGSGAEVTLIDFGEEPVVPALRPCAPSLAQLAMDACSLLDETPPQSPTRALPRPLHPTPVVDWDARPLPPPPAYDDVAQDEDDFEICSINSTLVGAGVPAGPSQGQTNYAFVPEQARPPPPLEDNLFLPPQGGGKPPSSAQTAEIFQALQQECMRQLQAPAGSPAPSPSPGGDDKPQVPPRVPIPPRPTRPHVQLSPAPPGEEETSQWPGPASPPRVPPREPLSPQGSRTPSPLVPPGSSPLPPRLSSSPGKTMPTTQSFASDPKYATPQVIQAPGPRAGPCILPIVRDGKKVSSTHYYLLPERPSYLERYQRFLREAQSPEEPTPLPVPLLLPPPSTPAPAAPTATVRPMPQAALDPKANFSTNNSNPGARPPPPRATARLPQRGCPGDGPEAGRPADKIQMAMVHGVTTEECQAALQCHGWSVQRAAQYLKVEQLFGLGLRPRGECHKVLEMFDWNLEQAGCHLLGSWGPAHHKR
method-description: Reaction Biology 33P Hotspot assay
Format: biochemical
Quick list: log10(IC50) per entry.
measurement-type: log10(IC50) (log10 of the value in nM)

[[record]]
structure_notation = "COc1cc(N2CCN(C)CC2)ccc1Nc1ncc(C)c(NCC2CCOCC2)n1"
measured_number = 1.54

[[record]]
structure_notation = "CC[C@@H](Nc1nc(Nc2ccc(C3CCN(C)CC3)c(OC(C)C)c2)ncc1Cl)C1CCOCC1"
measured_number = 2.55

[[record]]
structure_notation = "COc1cc(-n2cccn2)ccc1Nc1ncc(Cl)c(NC[C@H]2CCCO2)n1"
measured_number = 1.81

[[record]]
structure_notation = "COc1cc(-c2cnn(C)c2)ccc1Nc1ncc(Cl)c(NCC2CCOCC2)n1"
measured_number = 1.58

[[record]]
structure_notation = "COc1cc(N2CCN(C)CC2)c(F)cc1Nc1ncc(C)c(NCC2CCOCC2)n1"
measured_number = 1.17

[[record]]
structure_notation = "Cn1cc(Nc2ncc(Cl)c(NCC3CCOCC3)n2)cn1"
measured_number = 1.92

[[record]]
structure_notation = "CC(C)Oc1cc(Nc2ncc(Cl)c(N[C@H](C)C3CCOCC3)n2)ccc1N1CCN(C)CC1"
measured_number = 1.57

[[record]]
structure_notation = "Clc1cnc(Nc2ccc(OCC3CCOCC3)cc2)nc1NCC1CCOCC1"
measured_number = 1.66

[[record]]
structure_notation = "Cc1cnc(Nc2cc(F)c(C3CCN(C)CC3)c(F)c2)nc1Nc1ccc(Cl)c(OCC(C)C)c1"
measured_number = 2.26

[[record]]
structure_notation = "CC(C)Oc1cc(Nc2ncc(Cl)c(NCC3CCOCC3)n2)ccc1-c1cnn(C)c1"
measured_number = 1.37

